- Assay target: HA of B/Harbin/7/94 (Yamagata) (influenza B virus)
- Assay details: cell-based or functional assay
Overview of recorded VNA titer for various binders
Report the value in nM with no unit label.

Record excerpt, results attached:
[
  {
    "Binder": "SD1087 (VHH) VHH: EVQLVESGGGLVQPGGSLRLSCVISGLSLDTYAVGWFRQAPGKEREGITCISSGHGMTYYADSVKGRFTVSTDNAKNTVYLQMNGLQPEDTARYYCATESRYYCSDNWPAPQRYIYWGQGTQVTVSS",
    "Observable": "VNA titer",
    "Scale unit": "nM",
    "Recorded value": 503
  },
  {
    "Binder": "SD1084 (VHH) VHH: EVQLVESGGGLVQPGGSLKLSCAASGFTFSTSWMYWLRQAPGKGLEWVSVINTDGGTYYADSVKDRFTISRDNAKDTLYLQMSSLKSEDTAVYYCAKDWGGPEPTRGQGTQVTVSS",
    "Observable": "VNA titer",
    "Scale unit": "nM",
    "Recorded value": 240
  }
]

Moving on to another binder below.
The measured VNA titer associated with SD1083 (VHH) VHH: EVQLVESGGGLVQPGGSLRLSCAATGFTLENKAIGWFRQTPGSEREGVLCISKSGSWTYYTDSMRGRFTISRDNAENTVYLQMDSLKPEDTAVYYCATTTAGGGLCWDGTTFSRLASSWGQGTQVTVSS reads 259
